The reported measurements were obtained from patent US8952034B2.

Listed next: entries and their corresponding inhibition at 1 µM.
target.or.system: wild-type human cardiac sodium channel, hNav1.5 (Homo sapiens)
protocol.text: Late INa screening assay (automated whole cell patch clamp, PatchXpress)
Assay type: cell-based
applied.conditions: compound at 1 μM; HEK293 cells expressing hNav1.5; late INa generated with 10 μM Tefluthrin (or 50 nM ATX II); read-out: LateINa_1 uM (percent block of late INa)
Method: The late sodium current (Late INa) and peak sodium current (Peak INa) assays are performed on an automated electrophysiology platform, PatchXpress 7000A (MDS Analytical Technologies, Sunnyvale, Calif.), which uses the whole cell patch clamp technique to measure currents through the cell membrane of up to 16 cells at a time. […]

# compound, inhibition at 1 µM
records = [
    ("FC(F)(F)Oc1ccc(-c2ccc3nnc(C(F)(F)COCc4cccnc4)n3c2)cc1 [BHN-139]", "15.4%"),
    ("Fc1cc(-c2ccc3nnc(C(F)(F)F)n3c2)cc(F)c1Oc1ccccc1 [BHN-109]", "61.8%"),
    ("CCOc1cc(OC(F)(F)F)ccc1-c1ccc2nnc(C(F)(F)F)n2c1 [BHN-222]", "65.3%"),
    ("Nc1cc(-c2ccc3nnc(C(F)(F)F)n3c2)ccc1OC(F)(F)F [BHN-134]", "27.8%"),
    ("COCC(F)(F)c1nnc2ccc(-c3ccc(Oc4ccc(F)cc4)cc3)cn12 [BHN-138]", "42.8%"),
    ("FC(F)(F)c1nnc2ccc(-c3ccc(OC(F)(F)c4ccccc4)cc3)cn12 [BHN-272]", "64.9%"),
    ("FC(F)(F)Oc1ccc(-c2ccc3nnc(C(F)(F)F)n3c2)cc1Cl [BHN-164]", "50.7%"),
    ("Cc1noc(-c2cc(-c3ccc4nnc(C(F)(F)F)n4c3)ccc2OC(F)(F)F)n1 [BHN-182]", "18.9%"),
    ("FC(F)(F)Oc1ccc(-c2ccc3nnc(C(F)(F)OCc4noc(C5CCC5)n4)n3c2)cc1 [BHN-259]", "71.6%"),
]

----------
target.or.system: wild-type human cardiac sodium channel, hNav1.5 (Homo sapiens, UniProt Q14524)
Sequence (Q14524 whole entry): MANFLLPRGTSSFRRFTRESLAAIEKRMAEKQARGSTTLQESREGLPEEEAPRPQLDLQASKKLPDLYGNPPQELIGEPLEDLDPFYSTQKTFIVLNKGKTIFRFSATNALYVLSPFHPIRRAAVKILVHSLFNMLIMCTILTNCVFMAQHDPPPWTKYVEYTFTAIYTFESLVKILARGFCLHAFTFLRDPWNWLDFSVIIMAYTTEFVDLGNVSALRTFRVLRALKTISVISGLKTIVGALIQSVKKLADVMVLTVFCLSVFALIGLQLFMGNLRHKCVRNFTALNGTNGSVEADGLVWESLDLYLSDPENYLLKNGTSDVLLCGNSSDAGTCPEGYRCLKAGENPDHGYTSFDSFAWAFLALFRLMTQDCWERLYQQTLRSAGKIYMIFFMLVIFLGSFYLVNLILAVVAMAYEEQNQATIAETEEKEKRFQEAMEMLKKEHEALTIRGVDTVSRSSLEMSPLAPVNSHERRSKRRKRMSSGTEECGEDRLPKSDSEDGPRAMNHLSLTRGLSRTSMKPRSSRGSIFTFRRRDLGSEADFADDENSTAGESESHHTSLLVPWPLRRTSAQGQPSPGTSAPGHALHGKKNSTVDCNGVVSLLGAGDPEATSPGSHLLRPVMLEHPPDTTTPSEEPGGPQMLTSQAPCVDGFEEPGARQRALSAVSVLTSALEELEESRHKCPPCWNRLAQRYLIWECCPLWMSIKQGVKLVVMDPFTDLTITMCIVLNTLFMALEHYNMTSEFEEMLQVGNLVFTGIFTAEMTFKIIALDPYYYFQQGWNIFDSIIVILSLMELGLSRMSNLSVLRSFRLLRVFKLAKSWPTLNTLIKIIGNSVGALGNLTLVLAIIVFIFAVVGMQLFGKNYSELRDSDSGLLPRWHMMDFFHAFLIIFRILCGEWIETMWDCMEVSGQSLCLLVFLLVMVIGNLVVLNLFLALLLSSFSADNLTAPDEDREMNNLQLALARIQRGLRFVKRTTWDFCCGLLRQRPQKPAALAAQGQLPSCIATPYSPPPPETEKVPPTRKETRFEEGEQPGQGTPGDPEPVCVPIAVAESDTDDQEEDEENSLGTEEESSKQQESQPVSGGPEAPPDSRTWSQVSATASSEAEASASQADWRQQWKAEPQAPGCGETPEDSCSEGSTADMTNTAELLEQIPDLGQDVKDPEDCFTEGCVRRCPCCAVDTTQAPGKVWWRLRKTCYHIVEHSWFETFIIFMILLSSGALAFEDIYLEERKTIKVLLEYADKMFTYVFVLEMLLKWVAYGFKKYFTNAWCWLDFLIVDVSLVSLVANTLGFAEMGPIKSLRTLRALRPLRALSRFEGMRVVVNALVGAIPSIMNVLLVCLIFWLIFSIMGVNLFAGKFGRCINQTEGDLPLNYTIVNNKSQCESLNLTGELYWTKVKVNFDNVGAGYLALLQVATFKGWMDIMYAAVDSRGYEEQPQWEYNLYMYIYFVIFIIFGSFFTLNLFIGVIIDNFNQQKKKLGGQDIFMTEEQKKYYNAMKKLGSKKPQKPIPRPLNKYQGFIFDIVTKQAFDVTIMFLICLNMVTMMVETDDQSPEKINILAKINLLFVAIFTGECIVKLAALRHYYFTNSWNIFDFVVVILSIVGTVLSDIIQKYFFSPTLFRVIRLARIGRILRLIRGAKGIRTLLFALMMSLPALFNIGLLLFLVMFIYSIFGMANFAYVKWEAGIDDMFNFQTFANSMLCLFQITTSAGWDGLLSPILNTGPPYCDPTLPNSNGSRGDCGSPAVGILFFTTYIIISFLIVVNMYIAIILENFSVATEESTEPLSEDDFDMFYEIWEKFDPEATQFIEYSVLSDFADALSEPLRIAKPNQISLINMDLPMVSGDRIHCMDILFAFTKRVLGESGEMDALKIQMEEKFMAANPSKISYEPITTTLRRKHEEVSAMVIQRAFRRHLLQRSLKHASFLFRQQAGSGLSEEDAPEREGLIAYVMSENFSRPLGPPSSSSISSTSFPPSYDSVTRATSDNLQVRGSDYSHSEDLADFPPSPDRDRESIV
protocol.text: Late INa screening assay (automated whole cell patch clamp, PatchXpress)
Format: cell-based
applied.conditions: compound at 1 μM; HEK293 cells expressing hNav1.5; late INa generated with 10 μM Tefluthrin (or 50 nM ATX II); read-out: LateINa_1 uM (percent block of late INa)
attribute.measured: inhibition at 1 µM (%)

# molecule.smiles, target.or.system, units.symbol, observed.measurement
data = [
    ("CC(C)c1nnc2ccc(-c3ccc(Oc4ccccc4)cc3)nn12", "wild-type human cardiac sodium channel, hNav1.5 (Homo sapiens, UniProt Q14524)", "%", 63.4),
    ("FC(F)(F)Oc1ccc(-c2ccc3nnc(C(F)(F)OCCC(c4ccccc4)c4ccccc4)n3c2)cc1", "wild-type human cardiac sodium channel, hNav1.5 (Homo sapiens, UniProt Q14524)", "%", 51),
    ("Cn1nc(C2CC2)cc1COC(F)(F)c1nnc2ccc(-c3ccc(OC(F)(F)F)cc3)cn12", "wild-type human cardiac sodium channel, hNav1.5 (Homo sapiens, UniProt Q14524)", "%", 50.2),
    ("FC(F)(F)Oc1ccc(-c2ccc3nnc(C(F)(F)OCc4ccnc(N5CCCCC5)c4)n3c2)cc1", "wild-type human cardiac sodium channel, hNav1.5 (Homo sapiens, UniProt Q14524)", "%", 76.3),
]

----------
target.or.system: wild-type human cardiac sodium channel, hNav1.5 (Homo sapiens)
protocol.text: Late INa screening assay (automated whole cell patch clamp, PatchXpress)
Format: cell-based
applied.conditions: compound at 1 μM; HEK293 cells expressing hNav1.5; late INa generated with 10 μM Tefluthrin (or 50 nM ATX II); read-out: LateINa_1 uM (percent block of late INa)
Listing: inhibition at 1 µM of selected compounds
attribute.measured: inhibition at 1 µM (%)

# compound, observed.measurement
measured = [
    ("CCOC(=O)c1ccc(-c2nnc3ccc(-c4ccc(OC(F)(F)F)cc4)cn23)cc1 [BHN-86]", 82.7),
    ("Fc1cc(-c2ccc3nnc(C(F)(F)F)n3n2)cc(F)c1Oc1ccccc1 [BHN-210]", 33.8),
    ("CC(=O)Nc1cc(OC(F)(F)F)ccc1-c1ccc2nnc(-c3ccc(OC(F)(F)F)cc3)n2c1 [BHN-116]", 16.4),
    ("FC(F)(F)Oc1ccc(-c2ccc3nnc(C(F)(F)OCc4coc(-c5ccc(C(F)(F)F)cc5)n4)n3c2)cc1 [BHN-288]", 39.2),
    ("FC(F)(F)Oc1ccc(-c2ccc3nnc(C(F)(F)OCc4cccc(-c5cccnc5)c4)n3c2)cc1 [BHN-306]", 49.7),
    ("CC(C)c1nc(COC(F)(F)c2nnc3ccc(-c4ccc(OC(F)(F)F)cc4)cn23)no1 [BHN-208]", 70.5),
    ("COCCOc1cc(OC(F)(F)F)ccc1-c1ccc2nnc(C(F)(F)F)n2c1 [BHN-178]", 28.5),
    ("Fc1ccc(-c2cc(COC(F)(F)c3nnc4ccc(-c5ccc(OC(F)(F)F)cc5)cn34)no2)cc1 [BHN-318]", 28.9),
    ("FC(F)(F)Oc1ccc(-c2ccc3nnc(C(F)(F)OCc4cn(-c5ccccc5)nc4C(F)(F)F)n3c2)cc1 [BHN-314]", 24.2),
    ("FC(F)(F)c1nnc2ccc(-c3ccc(OCC4CC4)cc3)cn12 [BHN-151]", 43.1),
    ("FC(F)(F)c1ncc2ccc(-c3nc4ccccc4s3)cn12 [BHN-213]", 24),
    ("FC(F)(F)Oc1ccc(-c2ccc3nnc(C(F)(F)OCc4ccncc4)n3c2)cc1 [BHN-149]", 34),
    ("COCC(F)(F)c1nnc2ccc(-c3ccc(OC(F)(F)F)c(F)c3)cn12 [BHN-232]", 45.3),
    ("FC(F)c1nnc2ccc(-c3ccc(OC(F)(F)F)cc3)nn12 [BHN-12]", 39.6),
    ("FC(F)(F)Oc1ccc(-c2ccc3nnc(C(F)(F)OCc4cc(-c5ccc(C6CC6)nc5)ccn4)n3c2)cc1 [BHN-316]", 59),
    ("FC(F)(F)Oc1ccc(-c2ccc3nnc(C(F)(F)OCc4coc(-c5ccccc5)n4)n3c2)cc1 [BHN-299]", 51.1),
    ("FC(F)(F)Oc1ccc(-c2ccc3nnc(COCc4ccc(Cl)cc4)n3c2)cc1 [BHN-241]", 82.2),
]

----------
Below, each of the compounds is paired with its reported inhibition at 1 µM value.
target.or.system: UniProt Q14524
protocol.text: Late INa screening assay (automated whole cell patch clamp, PatchXpress)
Format: cell-based
applied.conditions: compound at 1 μM; HEK293 cells expressing hNav1.5; late INa generated with 10 μM Tefluthrin (or 50 nM ATX II); read-out: LateINa_1 uM (percent block of late INa)
attribute.measured: inhibition at 1 µM (%)

# compound, attribute.measured, units.symbol, observed.measurement
records = [
    ("Fc1ccc(COCc2nnc3ccc(-c4ccc(OC(F)(F)F)cc4)cn23)cc1", "inhibition at 1 µM", "%", 79.8),
    ("Fc1ccccc1Oc1ccc(-c2ccc3nnc(C(F)(F)F)n3c2)cc1", "inhibition at 1 µM", "%", 32.9),
    ("FC(F)(F)c1nnc2ccc(-c3ccc(Sc4ccccc4)cc3)cn12", "inhibition at 1 µM", "%", 70.5),
    ("FC(F)(F)Oc1ccc(-c2ccc3nnc(C(F)(F)OCc4noc(C5CC5)n4)n3c2)cc1", "inhibition at 1 µM", "%", 44.7),
    ("COc1cc(-c2ccc3nnc(C(F)(F)F)n3c2)cc(OC)c1OC", "inhibition at 1 µM", "%", 16.5),
    ("Cn1nc(COC(F)(F)c2nnc3ccc(-c4ccc(OC(F)(F)F)cc4)cn23)cc1-c1ccccc1", "inhibition at 1 µM", "%", 24.2),
    ("FC(F)(F)Oc1ccc(-c2ccc3nnc(C(F)(F)OCc4cccc(-c5ncccn5)c4)n3c2)cc1", "inhibition at 1 µM", "%", 59.6),
    ("Fc1ccccc1COCc1nnc2ccc(-c3ccc(OC(F)(F)F)cc3)cn12", "inhibition at 1 µM", "%", 80.6),
    ("CC(O)COC(F)(F)c1nnc2ccc(-c3ccc(OC(F)(F)F)cc3)cn12 (centres unmarked)", "inhibition at 1 µM", "%", 32.9),
    ("Cc1oc(-c2ccccc2)nc1COC(F)(F)c1nnc2ccc(-c3ccc(OC(F)(F)F)cc3)cn12", "inhibition at 1 µM", "%", 72.2),
    ("FC(F)(F)Oc1ccc(-c2ccc3nnc(C(F)(F)OCc4cccc5ncccc45)n3c2)cc1", "inhibition at 1 µM", "%", 53.9),
    ("CS(=O)(=O)NCC(F)(F)c1nnc2ccc(-c3ccc(OC(F)(F)F)cc3)cn12", "inhibition at 1 µM", "%", 16.3),
    ("Cc1nc(COC(F)(F)c2nnc3ccc(-c4ccc(OC(F)(F)F)cc4)cn23)no1", "inhibition at 1 µM", "%", 29.1),
    ("OC(COCC(F)(F)c1nnc2ccc(-c3ccc(OC(F)(F)F)cc3)cn12)COc1ccccc1Cl (centres unmarked)", "inhibition at 1 µM", "%", 26.5),
    ("FC(F)(F)Oc1ccc(-c2ccc3nnc(COCc4ccc(Cl)cc4Cl)n3c2)cc1", "inhibition at 1 µM", "%", 79.1),
    ("FC(F)(F)Oc1ccc(-c2ccc3nnc(C(F)(F)OCC#Cc4ccccc4)n3c2)cc1", "inhibition at 1 µM", "%", 87.7),
    ("FC(F)(F)Oc1ccc(-c2ccc3nnc(C(F)(F)OCc4ccc5c(c4)OC(F)(F)O5)n3c2)cc1", "inhibition at 1 µM", "%", 63),
]
